Values from PubChem BioAssay AID651555

What EC50 was measured for each of the following?
assayed system: Melanocortin receptor 4 (Homo sapiens) (UniProt P32245)
Sequence (P32245 whole entry, looked up): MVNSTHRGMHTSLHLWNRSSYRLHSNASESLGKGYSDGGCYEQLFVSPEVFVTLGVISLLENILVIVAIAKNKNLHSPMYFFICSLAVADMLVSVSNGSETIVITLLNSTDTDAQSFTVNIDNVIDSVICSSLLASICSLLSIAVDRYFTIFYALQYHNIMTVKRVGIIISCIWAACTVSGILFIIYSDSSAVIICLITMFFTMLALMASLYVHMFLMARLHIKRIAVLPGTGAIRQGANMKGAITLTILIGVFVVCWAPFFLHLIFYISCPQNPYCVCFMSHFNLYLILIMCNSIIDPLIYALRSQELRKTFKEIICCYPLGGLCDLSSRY
assay procedure: MC4R beta-arrestin agonist potency, late-stage follow-up, cell-based, luminescence, agonists (AID 651555)
conditions used: U2OS MC4R beta-arrestin recruitment, beta-gal luminescence
Active and inactive are the calls of the source.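 The calls were made as follows: active = compounds whose half-maximal activation potency EC50 is 10 µM or stronger; inactive = the rest.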

-- ask // returns reported EC50 for input Cc1ccccc1CN1Cc2cnnn2-c2ccccc2C1C#N (stereo not drawn)
-- reply > 50 µM (inactive)

-- ask Reported EC50, compound Cc1ccccc1OCC(O)CN1CCC(CN2C(=O)c3cccc4cccc(c34)C2=O)CC1 (stereo not drawn) : ____
-- reply > 50 µM (inactive)

-- ask Can you look up the measured EC50 of OC(COc1ccc2ccccc2c1)CN1CCC(Nc2nc3ccccc3o2)CC1 (stereo not drawn) for me?
-- reply > 50 µM (inactive)
